src = patent US20080267974A1

target: tumor necrosis factor alpha (TNFα) (human, UniProt P01375 77-233); experiment: affinity by IC50 ELISA (so named in paragraph 380)
Sequence (P01375 77-233 limits assumed): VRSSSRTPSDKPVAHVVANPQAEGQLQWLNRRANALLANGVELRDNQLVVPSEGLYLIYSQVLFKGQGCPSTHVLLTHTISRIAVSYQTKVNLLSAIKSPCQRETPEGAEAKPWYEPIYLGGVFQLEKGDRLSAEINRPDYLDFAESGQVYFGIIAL
Measured attribute: Affinity (nM)
Entry rule: numbers only, all in nM.

MAb 892 (antibody, V domains shown, IgG1/kappa, CHO; also called H1388/L250) VH: EVQLLESGGGLIQPGGSLRLSCAASGFTVSSNYMSWVRQAPGKGLEWVSVIYSGGRTYYADSVKGRFTISRDSSKNTLYLQMNSLRAEDTAVYYCARNYYGSLYDYWGQGTLVTVSS VL: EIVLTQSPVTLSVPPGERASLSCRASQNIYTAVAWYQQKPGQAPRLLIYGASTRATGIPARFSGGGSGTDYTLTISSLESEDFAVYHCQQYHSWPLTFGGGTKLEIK    0.43

# input Given MAb 2071 (antibody, V domains shown, IgG1/kappa, CHO; also called H1844/L472) VH: EVQLVESGGGLIQPGGSLRLSCAVSGLNVSRDYMSWVRQAPGKGLEWISVIYRGGVTMYADSVKGRFTISRDTSKNTVFLQMSRLKVADTAVYYCARNYYGSTLDYWGQGTLVTVSS VL: EIVLTQSPATLSVSPGERASLSCRASQNIYTAVAWYQQKPGQAPRLLIYNAATRATGIPARFSGGGSGTDYTLTISSLESEDFAVYHCQQWHSWPLTFGGGTKLEIK , state its recorded Affinity.
# output 0.01

# input Param item = MAb 2060 (antibody, V domains shown, IgG1/kappa, CHO; also called H1844/L471) VH: EVQLVESGGGLIQPGGSLRLSCAVSGLNVSRDYMSWVRQAPGKGLEWISVIYRGGVTMYADSVKGRFTISRDTSKNTVFLQMSRLKVADTAVYYCARNYYGSTLDYWGQGTLVTVSS VL: EIVLTQSPATLSVSPGERASLSCRASQNIYTAVAWYQQKPGQAPRLLIYNASTRATGIPARFSGGGSGTDYTLTISSLESEDFAVYHCQQWHSWPLTFGGGTKLEIK ; retrieve measured Affinity.
# output 0.02
